- System: GCaMP5-expressing T. gondii
- Construct: whole extracellular parasites expressing GCaMP5 Ca2+ sensor
- Parameters: species or system GCaMP5-expressing Toxoplasma gondii, extracellular; GCaMP5 fluorescence (cytosolic Ca2+) after 100 uM zaprinast in compound-pretreated extracellular parasites, background-subtracted, relative to zaprinast alone
- test.context: 100 uM zaprinast stimulation; 10 min pretreatment; mean of two replicates; 0.23 h
- Description: GCaMP5-expressing parasites were suspended in Ringer's solution at 4 × 10^7 parasites/ml, and 50 μl of parasites were applied to each well of a 96-well plate (Costar, catalog no. 3631). […] Parasites were then treated with 100 μM zaprinast or 0.1% DMSO as a vehicle control and incubated at 37 °C with 5% CO2 for an additional 4 min before measuring fluorescence with excitation and emission wavelengths of 485 and 525 nm, respectively, on a SpectraMax M3 (Molecular Devices). […]
measurement.label: fold change in fluorescence relative to zaprinast alone

[[record]]
molecule = "COC(=O)Nc1nc2ccc(S(=O)(=O)c3ccc(NC(=O)Nc4cc(C(F)(F)F)ccc4F)cc3)cc2[nH]1 [GW680908A]"
val = 1.018

[[record]]
molecule = "COc1ccc(S(=O)(=O)NC2CCN(c3cc(C)nc(Nc4cccc(C#N)c4)n3)CC2)cc1 [GSK1653539A]"
val = 0.8764

[[record]]
molecule = "COc1ccc(Nc2nccc(N3CCC(NC(=O)C(C)c4ccc(Cl)cc4)C3)n2)cc1 (stereo not drawn) [GSK1379735A]"
val = 0.6825

[[record]]
molecule = "O=C(Nc1n[nH]c2cc(-c3cccc(F)c3F)ccc12)C1CC1 [SB-733894]"
val = 1.167

[[record]]
molecule = "CCn1c(-c2nonc2N)nc2c(C#CC(C)(C)O)nc(OC[C@H](N)c3ccccc3)cc21 [GSK943949A]"
val = 1.114

[[record]]
molecule = "CNc1nccc(-c2c(-c3ccc(F)cc3)ncn2CCCN2CCOCC2)n1 [SB-222516]"
val = 0.95

[[record]]
molecule = "COc1ccc(CNC(=O)NC2CCN(c3ccnc(Nc4ccc(OC)cc4)n3)C2)cc1 (stereo not drawn) [GSK1379727A]"
val = 1.253

[[record]]
molecule = "Nc1cccc(-c2ccc3c(N)n[nH]c3c2)n1 [GSK2192730A]"
val = 1.059

[[record]]
molecule = "COc1ccc(-c2cc3c(N)ncnc3o2)cc1 [GW642138X]"
val = 1.142

[[record]]
molecule = "COc1cc2ncn(-c3cc(OCc4ccccc4S(C)(=O)=O)c(C#N)s3)c2cc1OC [GSK319347A]"
val = 1.184

[[record]]
molecule = "Nc1nccc(-c2c(-c3ccc(F)cc3)ncn2C2CCNCC2)n1 [SB-220025-R]"
val = 1.112

[[record]]
molecule = "Cc1ccc(C)c(NC(=O)NC2CCN(c3ccnc(Nc4ccc(F)cc4)n3)C2)c1 (stereo not drawn) [GSK1379720A]"
val = 1.268

[[record]]
molecule = "COc1ccc(-c2oc3ncnc(N)c3c2-c2ccc(OC)cc2)cc1 [SB-589132]"
val = 1.026

[[record]]
molecule = "Cc1occc1-c1nc(N)c(OC[C@@H](N)Cc2c[nH]c3ccccc23)cc1-c1cc2c(C)[nH]nc2cn1 [GSK1660450B]"
val = 1.179

[[record]]
molecule = "COc1cc2ncnc(Nc3cccc(Br)c3)c2cc1OC [GI230329A]"
val = 1.268

[[record]]
molecule = "Cc1nnc(-c2ccc(C)c(-c3ccc(C(=O)Nc4cccc(C#N)c4)cc3)c2)o1 [GW607117X]"
val = 1.107

[[record]]
molecule = "NS(=O)(=O)c1ccc(NC=C2C(=O)Nc3ccc4ncsc4c32)cc1 [GW589933X]"
val = 1.196

[[record]]
molecule = "Cc1c2ccc(N(C)c3ccnc(Nc4cccc(S(N)(=O)=O)c4)n3)cc2nn1C [GW771127A]"
val = 1.211

